# SYSTEM: hOX1R (Homo sapiens, UniProt O43613)
# ASSAY_REMARKS: FLIPR Ca2+ Flux Assay, orexin-1 receptor
# CONDITIONS: CHO cells expressing orexin-1 receptor; agonist 70 pM Ala-6,12 orexin-A
PROPERTY: IC50

- COMPOUND: "CCN(CCc1cc(C)c(C(C)(C)O)cn1)C(=O)c1ccccc1-n1nccn1 [Example 47]"
  PROPERTY: "IC50"
  REPORTED: "1.56 µM"
- COMPOUND: "CCN(CCc1ccc(C(C)(C)O)cn1)C(=O)c1cccnc1-n1cccn1 [Example 49]"
  PROPERTY: "IC50"
  REPORTED: "> 10 µM"
- COMPOUND: "CCN(CCc1cccc(C(C)(C)O)n1)C(=O)c1ccccc1OCC(F)F [Example 20]"
  PROPERTY: "IC50"
  REPORTED: "> 10 µM"
- COMPOUND: "CCOc1ccccc1C(=O)N(CC)CCc1ccc(C(C)(C)O)cn1 [Example 57]"
  PROPERTY: "IC50"
  REPORTED: "> 10 µM"
- COMPOUND: "CCN(CCc1cncc(C(C)(C)O)n1)C(=O)c1ccccc1-n1nccn1 [Example 39]"
  PROPERTY: "IC50"
  REPORTED: "> 10 µM"
- COMPOUND: "CCN(CCc1ccnc(C(C)(C)O)n1)C(=O)c1ccccc1-n1nccn1 [Example 40]"
  PROPERTY: "IC50"
  REPORTED: "> 10 µM"
- COMPOUND: "CCN(CCc1ccnc(C(C)(C)O)c1)C(=O)c1ccccc1-n1nccn1 [Example 37]"
  PROPERTY: "IC50"
  REPORTED: "> 10 µM"
- COMPOUND: "CCN(CCc1cccc(C(C)(C)O)n1)C(=O)c1cccnc1OC(C)C [Example 5]"
  PROPERTY: "IC50"
  REPORTED: "> 10 µM"
- COMPOUND: "CCN(CCc1ccc(C(C)(C)O)cn1)C(=O)c1ccccc1C1CC1(F)F (stereo not drawn) [Example 63]"
  PROPERTY: "IC50"
  REPORTED: "> 10 µM"
